# EXPERIMENT_NOTES: compound effects on hepatocellular carcinoma cell viability – HepG2, calcein-AM fluorescence, 48 h, basal, profiling panel (AID 1164); further: test concentration not given here
# PROTOCOL_CONDITIONS: higher = more signal
VALUE_KIND: z-score
One number for each entry.

Sample answers from the record:
chemical_string=Cc1ccc(S[C@]2(C(=O)O)CC(=O)N(Cc3ccccc3C(F)(F)F)[C@@H]2c2ccc(CO)cc2)cc1 recorded_value=0.775
chemical_string=COCCOC(=O)N1C(=O)[C@@]2(c3ccccc31)[C@H](c1ccc(OCCO)cc1)N1[C@H](c3ccccc3)[C@H](c3ccccc3)OC(=O)[C@H]1[C@@H]2C(=O)NC[C@H](O)c1ccccc1 recorded_value=0.349
chemical_string=C[N+](C)(C)CCCC[C@@H]1NC(=O)[C@@H]2C[C@H](C(=O)NCCCCCNC(=O)CS)[C@H](c3cccc(OCCO)c3)N2C1=O recorded_value=0.289

Give z-score for all compounds that follow.
1. Cc1ccc(N2C(=O)c3ccccc3[C@](C)(C(=O)NC(C)C)[C@@H]2c2ccc(CO)cc2)nc1
2. CCCN1C(=O)[C@@H]2Cc3c([nH]c4ccccc34)[C@@H](c3cccc(O)c3)N2C1=O

Result:
-1.37
-1.81

----------
# EXPERIMENT_NOTES: change in splice reporter luminescence, either direction, cell-based, HEK293, spliceosome inhibition project, primary screen (AID 1101);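 further: HEK293 cells carrying a splicing-competent luciferase reporter gene; test concentration not given here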
# PROTOCOL_CONDITIONS: HEK293 splicing luciferase reporter, 24 h, higher = more signal, called active from +8 up or from −8 down
Would you mind telling me the reported z-score of each entry?
Give bare numbers.

Solved entries:
compound="Cc1cc(C)c(C(O)C2C=CC3C(=O)N(c4ccccc4)C(=O)C3N2Nc2ccccc2)c(C)c1 (centres undefined)" recorded_value=-0.62
compound=NC(=O)NCC#Cc1ccc2c(c1)[C@]1(C(=O)N2)[C@H](c2ccc(OCCO)cc2)N2[C@H](c3ccccc3)[C@H](c3ccccc3)OC(=O)[C@H]2[C@@H]1C(=O)N1CCN(c2ncccn2)CC1 recorded_value=-0.115
compound=CCCN1C(=O)[C@@]2(Cc3ccccc3)N=C(c3ccc(OCCCO)cc3)O[C@H]2c2ccccc21 recorded_value=-0.872
compound=COC(=O)[C@@]1(Cc2ccc(OC)cc2)[C@H]2c3cc(C(=O)N(C)C)n(Cc4cc(F)c(F)c(F)c4)c3C[C@H]2CN1C(=O)c1ccccc1 recorded_value=-2.2
compound=COCCCNC(=O)[C@@]1(Cc2ccccc2I)c2ccccc2C(=O)N(Cc2ccccc2Cl)[C@H]1c1ccc(CO)cc1 recorded_value=-0.964

Hi! Can you tell me z-score for each of these compounds?
1. O=C1OCC=C[C@H]2OC34C=CCN(CCN5CCOCC5)C(=O)[C@H]3N(CCCCCO)C(=O)[C@@H]4[C@@H]12 (some centres undefined)
2. COC(=O)c1c(CC[C@@H](CO)NC(=O)N[C@@H](C)Cn2cc(C3(O)CCCC3)nn2)oc(C(C)=O)c1C(=O)OC
3. C[N+](C)(C)CCCC[C@@H]1NC(=O)[C@@H]2C[C@H](C(=O)O)[C@H](c3cccc(OCCO)c3)N2C1=O
4. CC(C)CCC[C@@H](C)[C@H]1CC[C@@]2(C)C3=C(CC[C@]12C)[C@@]1(C)CC[C@H](OC(=O)c2ccc(N)cc2)C(C)(C)C1CC3 (some centres undefined)

Result:
0.636
-1.45
-0.11
-0.925

----------
# EXPERIMENT_NOTES: small molecules captured by biotinylated probe aFSTL3 – biochemical, small-molecule microarray, fluorescence 635/667, stem cell growth factor project, primary screen (AID 1064);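 further: measures binding of the biotinylated anti-FSTL3 antibody to printed compounds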
# PROTOCOL_CONDITIONS: higher = more signal
Record form. Attribute: composite z-score. Fill in for each entry.
Give bare numbers.

Please review the entries below; each comes with its answer.
molecule=C[N+](C)(C)CCCC[C@@H]1NC(=O)[C@@H]2C[C@H](C(=O)O)[C@H](c3cccc(OCCO)c3)N2C1=O recorded_value=0.846
molecule=O=C1O[C@H](c2ccccc2)[C@H](c2ccccc2)N2[C@H]1[C@@H](C(=O)N1CCCCCCC1)[C@]1(C(=O)Nc3ccc(C#CCCO)cc31)[C@H]2c1ccc(OCCO)cc1 recorded_value=3.51
molecule="O=C1OCC=C[C@H]2OC34C=CCN(CCN5CCOCC5)C(=O)[C@H]3N(CCCCCO)C(=O)[C@@H]4[C@@H]12 (stereo not given in full)" recorded_value=-0.099
molecule="O=C(C=C(CC(O)c1cccc(Cl)c1)OCCF)OCCF (stereo not given)" recorded_value=0.876

Kindly give each listed record's composite z-score.
1. COC(=O)[C@@]1(Cc2ccccc2)[C@H]2c3cc(C(=O)N4CCCC4)n(CCO)c3C[C@H]2CN1C(=O)c1ccccc1
2. CCCCC(=C=CC[C@H](O)c1ccccc1OCCO)C[C@H](O)c1ccccn1
3. O=C1C2C=CC(C(O)c3cccc4ccccc34)N(Nc3ccccc3)C2C(=O)N1c1ccccc1 (stereo not given)
4. COCCOC(=O)N1C(=O)[C@@]2(c3cc(C#CCC(C(=O)OC)C(=O)OC)ccc31)[C@H](C(=O)N1CCCCCCC1)[C@H]1C(=O)O[C@H](c3ccccc3)[C@H](c3ccccc3)N1[C@@H]2c1ccc(O)cc1
5. COc1cccc(C[C@H]2C[C@@H](CO[Si](C(C)C)(C(C)C)C(C)C)N3C(=O)[C@]4(C(C)=O)O[C@]23[C@H]2C(=O)N(C)C(=O)[C@H]24)c1

Result:
[1.35, -0.0078, -0.0673, 2.64, -0.46]

// input: 3 molecules below; output: composite z-score for each
1. O=C1CSC(c2cccc([N+](=O)[O-])c2)N1c1ccccc1 (stereo not given)
2. O=c1c2ccc(Br)cc2nc(-c2ccccc2)n1Cc1cccc(O)c1
3. COC(=O)C(CC#Cc1ccc2c(c1)[C@]1(C(=O)N2)[C@H](C(=O)N2CCc3cc(OC)c(OC)cc3C2)[C@H]2C(=O)O[C@H](c3ccccc3)[C@H](c3ccccc3)N2[C@@H]1c1ccc(O)cc1)C(=O)OC

Result:
1. 0.315
2. 0.255
3. 0.145

List reported composite z-score for each of these molecules:
1. COc1ccc(C(=O)Nc2ccc3c(c2)[C@]2(O[C@@H](CCO)[C@H]([Si](C)(C)c4ccc(OC)cc4)[C@H]2C)C(=O)N3Cc2ccccc2)cc1
2. CO[C@H]1O[C@H](CO)[C@@H](OC(=O)Nc2ccc(C(F)(F)F)cc2)[C@H](OC(=O)Nc2ccccc2)[C@H]1OC(=O)Nc1ccccc1
3. C=C(C)[C@@H]1CC=C(C(O)C2C=CC3C(=O)N(C4CCCCC4)C(=O)C3N2Nc2ccc(OC)cc2)CC1 (stereo not given in full)
4. COc1ccc([Si](C)(C)[C@@H]2[C@@H](CCO)O[C@]3(C(=O)N(Cc4ccccc4)c4ccc(N5CCCCC5=O)cc43)[C@H]2C)cc1
5. COCCOC(=O)N1C(=O)[C@@]2(c3cc(C#Cc4ccc(OC)cc4)ccc31)[C@H](C(N)=O)[C@H]1C(=O)O[C@H](c3ccccc3)[C@H](c3ccccc3)N1[C@@H]2c1ccc(OCCO)cc1
6. O=C1c2ccccc2[C@](Cc2ccccc2I)(C(=O)NCC(F)(F)F)[C@H](c2ccc(CO)cc2)N1Cc1ccccc1

Result:
1. 0.0295
2. 0.113
3. -0.128
4. -0.389
5. -0.358
6. -0.213

Batch request: composite z-score per item, same order as input.
1. COCCCNC(=O)[C@@H]1c2ccccc2C(=O)N(c2ccc(C)cn2)[C@H]1c1ccc(CO)cc1
2. COc1ccccc1CN1C(=O)c2ccccc2[C@@H](C(=O)NCC(C)C)[C@@H]1c1ccc(CO)cc1

Result:
1.02
0.482

----------
# EXPERIMENT_NOTES: JC-1 mitochondrial signal, unstimulated HepG2 cells – cell-based, JC-1 fluorescence, 24 h, 100 nL compound, profiling panel (AID 1167); further: test concentration not given here
# PROTOCOL_CONDITIONS: HepG2 mitochondrial potential, higher = more signal
Please provide measured z-score for the entries that follow.
Answers are plain numbers.

The cases that follow already have their z-score on record.
molecule="CCCCCCCCCCC(O)C1C=CC2C(=O)NC(=O)C2N1Nc1ccccn1 (stereo not drawn)" recorded_value=-3.82
molecule=NCCCCCCNC(=O)[C@H]1C[C@H]2C(=O)N3CCC[C@H]3C(=O)N2[C@H]1c1ccc(O)cc1 recorded_value=-0.806
molecule="O=C1OCC=C[C@H]2OC34C=CCN(CCN5CCOCC5)C(=O)[C@H]3N(CCCCCO)C(=O)[C@@H]4[C@@H]12 (stereo partly drawn)" recorded_value=-0.539
molecule=O=C1c2ccccc2[C@](Cc2ccccc2I)(C(=O)NCC(F)(F)F)[C@H](c2ccc(CO)cc2)N1Cc1ccccc1 recorded_value=-0.0706

Give z-score for all molecules that follow.
1. O=C1O[C@@H](c2ccccc2)[C@@H](c2ccccc2)N2[C@@H](c3ccc(O)cc3)[C@]3(C(=O)Nc4ccc(C#CC5(O)CCCCCC5)cc43)[C@@H](C(=O)N3CCN(c4ncccn4)CC3)[C@H]12
2. COC(=O)[C@H]1N=C(c2ccc(OCCCO)cc2)O[C@H]1c1ccccc1CN=[N+]=[N-]

Result:
-0.512
-0.393

All values here come from PubChem BioAssay.
